Molecular target: Cytochrome P450 3A4 (Homo sapiens);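 note: confirmatory qHTS run detecting inhibitors and substrates of CYP3A4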
Sequence (P08684 whole entry): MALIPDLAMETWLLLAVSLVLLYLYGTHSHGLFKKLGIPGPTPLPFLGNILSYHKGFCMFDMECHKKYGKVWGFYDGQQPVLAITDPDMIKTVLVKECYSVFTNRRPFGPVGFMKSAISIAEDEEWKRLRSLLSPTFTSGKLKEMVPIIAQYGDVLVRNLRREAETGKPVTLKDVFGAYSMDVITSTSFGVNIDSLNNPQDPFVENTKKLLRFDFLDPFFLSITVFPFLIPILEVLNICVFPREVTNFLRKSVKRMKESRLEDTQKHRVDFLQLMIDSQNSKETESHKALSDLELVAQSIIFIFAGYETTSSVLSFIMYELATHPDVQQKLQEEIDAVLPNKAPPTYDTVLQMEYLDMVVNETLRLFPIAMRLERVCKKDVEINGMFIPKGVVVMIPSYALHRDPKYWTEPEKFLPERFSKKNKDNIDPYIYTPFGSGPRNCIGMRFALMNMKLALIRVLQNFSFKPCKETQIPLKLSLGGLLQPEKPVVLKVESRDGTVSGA
Conditions: Potency
Provide the recorded AC50 for the entries that follow.

Which value of AC50 has been reported for CC(C)c1nc(N(C)S(C)(=O)=O)nc(-c2ccc(F)cc2)c1/C=C/C(O)CC(O)CC(=O)O (stereo unspecified) in the records?
39.8 µM (inconclusive)

Please look up its AC50: OC(CN1CCNCC1)Cn1c2ccc(Br)cc2c2cc(Br)ccc21 (stereo unspecified)
31.6 µM (inconclusive)

I would be grateful if you could share the reported AC50 for Clc1ccc(C2[C@H]3CN(CC4CCCCC4)[C@H](c4ccccc4)C34CC2(c2ccccc2)C4)cn1 (stereo partly specified) .
15.8 µM (inconclusive)

Consider the molecule `CC(=O)N1[C@H](C)C=C[C@]1(Cc1ccccc1)C(=O)NCCc1c[nH]c2ccccc12` and give its measured AC50.
1.58 µM (inconclusive)

For the molecule shown here, `CC(C)Cn1c(N)c(C(=O)COC(=O)c2cc(C(F)(F)F)nc3c(C(F)(F)F)cccc23)c(=O)n(C)c1=O` , give the reported AC50.
3.16 µM (inconclusive)

Recorded AC50 of C=C1C([C@@]2(C)C(OC(C)=O)CC(=O)O[C@@](C)(COC(C)=O)C2CC(=O)OC)C(OC=O)C(OC(=O)C(O)C(C)CC)[C@]2(C)C(c3ccoc3)CC(=O)C12O (stereo partly specified) , please.
10 µM (inconclusive)
